Overview of recorded protein stability index for various variants
B1: SERPINB5 (parent)
chain: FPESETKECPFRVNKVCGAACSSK

- Variants of: B1
- assay comment: protein stability index of a GFP-peptide fusion (GPS, HEK-293T) (PSI 1-6); higher = more stable;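 further: lentivirally expressed fusions sorted by FACS into six bins by GFP to DsRed ratio, PSI derived from sequencing read proportions per bin multiplied by bin number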
- condition info: c terminus: a fixed tail appended

[[record]]
mutation_id = "A20I"
assay_readout = "protein stability index"
result = 2.32


Identify measured protein stability index associated with "F1V"
4.5

Identify measured protein stability index associated with "E3D"
2.42

Identify measured protein stability index associated with "T6I"
2.82

Identify measured protein stability index associated with "C21D"
2.81

Identify measured protein stability index associated with "C17L"
2.47
